Ref: patent US4065456A

- Test system: Collagen-Induced Aggregation In Rabbit Platelets
- METHOD DESCRIPTION: Inhibition of collagen-induced aggregation in rabbit platelets (aggregometer, PRP)
- Type: cell-based
- EXPERIMENTAL SETUP: Oryctolagus cuniculus, Platelet, table 2; concentration 10^-6 M; PRP 450,000 platelets/mm^3
Entry flag: criterion met if inhibition at 1 µM reaches 10%; criterion not met if it does not.

molecule="CN1C(=O)CCc2c(OCC(O)CO)cccc21 (stereo not drawn) [drawing 33]" group_label="criterion met"
molecule="C=CCN1C(=O)CCc2c(OCC(O)CO)cccc21 (stereo not drawn) [drawing 34]" group_label="criterion not met"
molecule="O=C1CCc2cc(OCC(O)CO)ccc2N1 (stereo not drawn) [drawing 35]" group_label="criterion not met"
molecule="O=C1CCc2c(cccc2OCC(O)CO)N1 (stereo not drawn) [drawing 32]" group_label="criterion met"
molecule="O=C1CCc2ccc(OCC(O)CO)cc2N1 (stereo not drawn) [drawing 36]" group_label="criterion met"
molecule="O=C1CCc2cccc(OCC(O)CO)c2N1 (stereo not drawn) [drawing 37]" group_label="criterion not met"

###

- Tested on: Collagen-Induced Aggregation In Rabbit Platelets
- METHOD DESCRIPTION: Inhibition of collagen-induced aggregation in rabbit platelets (aggregometer, PRP)
- Format: cell-based
- EXPERIMENTAL SETUP: Oryctolagus cuniculus, Platelet, table 2; concentration 10^-8 M; PRP 450,000 platelets/mm^3
Lab note: anything with inhibition at 0.01 µM at or over 4% counts as t; the rest go in f.

compound="O=C1CCc2c(cccc2OCC(O)CO)N1 (stereo not drawn) [drawing 32]" group_label=t
compound="C=CCN1C(=O)CCc2c(OCC(O)CO)cccc21 (stereo not drawn) [drawing 34]" group_label=f
compound="CN1C(=O)CCc2c(OCC(O)CO)cccc21 (stereo not drawn) [drawing 33]" group_label=f
compound="O=C1CCc2cc(OCC(O)CO)ccc2N1 (stereo not drawn) [drawing 35]" group_label=t
compound="O=C1CCc2cccc(OCC(O)CO)c2N1 (stereo not drawn) [drawing 37]" group_label=t
